Target: His-hSHIP1 enzyme (Homo sapiens, UniProt Q92835)
Construct: His
Assay: His-hSHIP1 activity, approach 2 (ratio of initial velocities IP4 25/IP4 250)
Type: biochemical
Design: key: +++: higher than reference or reference - 15%; ++: reference - 16% to reference - 30%; +: reference - 31% or lower
Conditions: ratio of initial velocities IP4 25/IP4 250 versus reference SHIP1 activator; asterisk in Table 2
Measurement type: Scoring, Approach 2 (Initial velocity Ratio)

Would you please look over these solved cases?
- Molecule: "Cc1cc(O)cc(C(=O)[C@H]2[C@H](C)[C@H](NC(=O)Nc3cccnc3)C[C@H]3C(C)(C)CCC[C@]23C)c1"
  Test result: "++"
- Molecule: "C=C1[C@H](C(=O)c2cc(OC)cc(OC)c2)[C@@]2(C)CCCC(C)(C)[C@@H]2C[C@H]1O"
  Test result: "+"
- Molecule: "Cc1cc(O)cc(C(=O)[C@H]2[C@H](C)[C@H](NC(=N)N)C[C@H]3C(C)(C)CCC[C@]23C)c1"
  Test result: "++"
- Molecule: "Cc1cc(O)cc(C[C@H]2[C@@H](C(=O)O)CC[C@H]3C(C)(C)CCC[C@]23C)c1"
  Test result: "+++"
- Molecule: "C[C@H]1CC[C@H]2C(C)(C)CCC[C@]2(C)[C@H]1CC(=O)Nc1cc(O)cc(O)c1"
  Test result: "++"

For reference, reported Scoring, Approach 2 (Initial velocity Ratio) for C[C@@H]1[C@H](NS(C)(=O)=O)C[C@H]2C(C)(C)CCC[C@]2(C)[C@H]1C(=O)c1cc(O)cc(O)c1 stands at +

The measured Scoring, Approach 2 (Initial velocity Ratio) associated with Cc1cc(O)cc(C(=O)[C@H]2[C@H](C)C(C(=O)O)C[C@H]3C(C)(C)CCC[C@]23C)c1 (some centres unmarked) reads +++

The molecule C[C@@H]1[C@H](NC(=O)CNS(=O)(=O)c2ccccc2C(=O)O)C[C@H]2C(C)(C)CCC[C@]2(C)[C@H]1C(=O)c1cc(O)cc(O)c1 showed Scoring, Approach 2 (Initial velocity Ratio) equal to +++

The measured Scoring, Approach 2 (Initial velocity Ratio) associated with CC(=O)N[C@@H]1C[C@H]2C(C)(C)CCC[C@]2(C)[C@@H](C(=O)c2cc(C)cc(O)c2)[C@@H]1C reads ++

Item: CC1(C)CCC[C@]2(C)[C@@H](Cc3cc(O)cc(O)c3)[C@@H](C(=O)O)CC[C@@H]12 | Scoring, Approach 2 (Initial velocity Ratio): ++

Sample C[C@@H]1[C@H](NC(=N)N)C[C@H]2C(C)(C)CCC[C@]2(C)[C@H]1C(=O)c1cc(O)cc(O)c1 ; Scoring, Approach 2 (Initial velocity Ratio) observed: +++

Looking up Cc1cc(O)cc(C(=O)[C@H]2[C@H](C)[C@H](N)C[C@H]3C(C)(C)CCC[C@]23C)c1 , I found its Scoring, Approach 2 (Initial velocity Ratio) recorded as ++

The measured Scoring, Approach 2 (Initial velocity Ratio) associated with Cc1cc(O)cc(C(=O)[C@H]2[C@H](C)[C@H](NS(C)(=O)=O)C[C@H]3C(C)(C)CCC[C@]23C)c1 reads ++

Per the record, Cc1cc(O)cc(C(=O)[C@H]2[C@H](C)[C@H](NCc3cnc[nH]3)C[C@H]3C(C)(C)CCC[C@]23C)c1 has Scoring, Approach 2 (Initial velocity Ratio) of ++

* * *

Target: His-hSHIP1 enzyme (Homo sapiens, UniProt Q92835)
Construct: His
Assay: His-hSHIP1 activity, approach 2 (ratio of initial velocities IP4 25/IP4 250)
Assay type: biochemical
Parameters: key: +++: higher than reference or reference - 15%; ++: reference - 16% to reference - 30%; +: reference - 31% or lower
Details: ratio of initial velocities IP4 25/IP4 250 versus reference SHIP1 activator; asterisk in Table 2
Measurement type: Scoring, Approach 2 (Initial velocity Ratio)

Sample records with Scoring, Approach 2 (Initial velocity Ratio):
- Molecule: "COc1cc(OC)cc(C(=O)C2=C(C)[C@H](O)C[C@H]3C(C)(C)CCC[C@]23C)c1"
  Test result: "++"
- Molecule: "COc1cc(OC)cc(S(=O)(=O)C[C@H]2C(C)C(O)C[C@H]3C(C)(C)CCC[C@]23C)c1 (some centres unmarked)"
  Test result: "+++"
- Molecule: "C[C@@H]1[C@H](NCc2cnc[nH]2)C[C@H]2C(C)(C)CCC[C@]2(C)[C@H]1C(=O)c1cc(O)cc(O)c1"
  Test result: "++"
- Molecule: "COc1cc(OC)cc(C(O)[C@@H]2[C@@]3(C)CCCC(C)(C)[C@@H]3CC[C@@]2(C)O)c1 (some centres unmarked)"
  Test result: "+++"

Attention now shifts to the item below.
Value of measured Scoring, Approach 2 (Initial velocity Ratio) for the entry C[C@@H]1[C@H](NC(=O)Nc2cccnc2)C[C@H]2C(C)(C)CCC[C@]2(C)[C@H]1C(=O)c1cc(O)cc(O)c1 : +++

* * *

Molecular target: His-hSHIP1 enzyme (Homo sapiens, UniProt Q92835)
Construct: His
Sequence (Q92835 1-1189): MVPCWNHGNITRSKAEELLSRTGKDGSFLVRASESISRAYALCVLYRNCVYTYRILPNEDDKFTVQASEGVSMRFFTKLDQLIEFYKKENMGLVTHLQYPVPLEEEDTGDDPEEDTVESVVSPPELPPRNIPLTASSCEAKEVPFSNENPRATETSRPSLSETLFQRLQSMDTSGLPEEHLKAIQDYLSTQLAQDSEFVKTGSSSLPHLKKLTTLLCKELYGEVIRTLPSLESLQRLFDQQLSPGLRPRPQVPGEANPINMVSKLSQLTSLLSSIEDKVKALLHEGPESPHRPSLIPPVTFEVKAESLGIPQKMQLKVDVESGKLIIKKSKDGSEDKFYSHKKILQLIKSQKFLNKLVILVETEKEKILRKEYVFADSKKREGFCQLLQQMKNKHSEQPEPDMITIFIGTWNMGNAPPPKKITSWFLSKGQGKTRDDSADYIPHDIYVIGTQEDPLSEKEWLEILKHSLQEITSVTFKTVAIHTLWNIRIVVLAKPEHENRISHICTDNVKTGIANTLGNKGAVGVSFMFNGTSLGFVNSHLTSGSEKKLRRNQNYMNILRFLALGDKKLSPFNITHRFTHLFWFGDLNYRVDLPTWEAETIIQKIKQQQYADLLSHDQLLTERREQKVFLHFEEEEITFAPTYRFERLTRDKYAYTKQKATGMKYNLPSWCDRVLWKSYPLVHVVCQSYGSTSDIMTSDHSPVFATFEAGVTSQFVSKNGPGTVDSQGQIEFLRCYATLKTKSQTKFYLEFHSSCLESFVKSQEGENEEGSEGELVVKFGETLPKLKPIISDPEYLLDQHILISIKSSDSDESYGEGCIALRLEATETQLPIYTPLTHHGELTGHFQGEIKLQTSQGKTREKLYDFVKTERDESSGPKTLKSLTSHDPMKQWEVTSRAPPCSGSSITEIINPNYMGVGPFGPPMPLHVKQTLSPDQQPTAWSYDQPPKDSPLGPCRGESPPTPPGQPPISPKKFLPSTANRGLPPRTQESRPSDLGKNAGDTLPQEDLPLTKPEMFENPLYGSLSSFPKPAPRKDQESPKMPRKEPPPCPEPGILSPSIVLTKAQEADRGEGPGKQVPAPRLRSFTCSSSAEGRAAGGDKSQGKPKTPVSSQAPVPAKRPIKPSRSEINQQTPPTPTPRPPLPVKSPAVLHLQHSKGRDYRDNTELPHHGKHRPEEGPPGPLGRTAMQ
Assay: His-hSHIP1 activity, approach 1 (phosphate release from IP4, Biomol Green)
Assay type: biochemical
Conditions: activation of His-hSHIP1; IP4 50 μM; test compound 0-300 μM; no asterisk in Table 2
Measurement type: Scoring, Approach 1 (% increase relative to background)

Sample answers from the record:
- Compound: "COc1cc(C)cc(C(=O)[C@H]2[C@H](C)C(NCCCN)C[C@H]3C(C)(C)CCC[C@]23C)c1.Cl.Cl (stereo partly drawn) [Compound No. 11]"
  Test result: "+++ (x ≥65)"
- Compound: "CC1(C)CCC[C@]2(C)[C@@H](COc3cc(O)cc(O)c3)[C@](C)(O)CC[C@@H]12 [Compound No. 38]"
  Test result: "+ (0 < x < 50)"
- Compound: "COc1cc(OC)cc(C(=O)[C@H]2[C@@H](C)[C@H](O)C[C@H]3C(C)(C)CCC[C@]23C)c1 [Compound No. 52]"
  Test result: "+++ (x ≥65)"
- Compound: "Cc1cc(O)cc(C(=O)[C@H]2[C@H](C)C(O)C[C@H]3C(C)(C)CCC[C@]23C)c1 (stereo partly drawn) [Compound No. 23]"
  Test result: "+ (0 < x < 50)"
- Compound: "C[C@@H]1[C@H](N)C[C@H]2C(C)(C)CCC[C@]2(C)[C@H]1C(=O)c1cc(O)cc(O)c1 [Compound No. 56]"
  Test result: "+ (0 < x < 50)"
- Compound: "COc1cc(O)cc(NC(=O)C2=C(C)CC[C@H]3C(C)(C)CCC[C@]23C)c1 [Compound No. 42]"
  Test result: "+ (0 < x < 50)"
- Compound: "CC1=C(C(=O)Nc2cc(O)cc(O)c2)[C@@]2(C)CCCC(C)(C)[C@@H]2CC1 [Compound No. 43]"
  Test result: "+ (0 < x < 50)"
- Compound: "C[C@H]1CC[C@H]2C(C)(C)CCC[C@]2(C)[C@H]1CCc1cc(O)cc(O)c1 [Compound No. 62]"
  Test result: "+++ (x ≥65)"

What the record says about COc1cc(C)cc(OC[C@@H]2[C@@]3(C)CCCC(C)(C)[C@@H]3CC[C@@]2(C)O)c1 [Compound No. 27] : Scoring, Approach 1 (% increase relative to background) is ++ (50 ≤ x < 65)
